Tested on: KB
method description: Cytotoxicity against human KB cells
Type: functional, cell-based
pIC50: −log10 of the molar value.
Each record here notes measured pIC50.
reported property: pIC50

{"columns": ["compound", "study system", "inequality operator", "readout number"],
 "data": [
  ["COc1cccc(C2C3=C(COC3=O)NC3=C2C(=O)c2ccccc2C3=O)c1 (stereo not given)", "KB", "=", 5.91],
  ["COc1cc(C2C3=C(COC3=O)NC3=C2C(=O)c2ccccc2C3=O)ccc1O (stereo not given)", "KB", "=", 5.72],
  ["O=C1OCC2=C1C(c1ccccc1[N+](=O)[O-])C1=C(N2)C(=O)c2ccccc2C1=O (stereo not given)", "KB", "=", 5.63],
  ["O=C1OCC2=C1C(c1ccc(Cl)cc1)C1=C(N2)C(=O)c2ccccc2C1=O (stereo not given)", "KB", "=", 5.84],
  ["O=C1OCC2=C1C(c1cccc3ccccc13)C1=C(N2)C(=O)c2ccccc2C1=O (stereo not given)", "KB", "<", 5.60]
]}

Sourced from ChEMBL document CHEMBL4732191
